Below, each of the compounds is paired with its reported kinase still bound, per cent of control value.
# TESTED_ON: PIK3C2B (human) (UniProt O00750)
# Sequence (O00750 whole entry, looked up): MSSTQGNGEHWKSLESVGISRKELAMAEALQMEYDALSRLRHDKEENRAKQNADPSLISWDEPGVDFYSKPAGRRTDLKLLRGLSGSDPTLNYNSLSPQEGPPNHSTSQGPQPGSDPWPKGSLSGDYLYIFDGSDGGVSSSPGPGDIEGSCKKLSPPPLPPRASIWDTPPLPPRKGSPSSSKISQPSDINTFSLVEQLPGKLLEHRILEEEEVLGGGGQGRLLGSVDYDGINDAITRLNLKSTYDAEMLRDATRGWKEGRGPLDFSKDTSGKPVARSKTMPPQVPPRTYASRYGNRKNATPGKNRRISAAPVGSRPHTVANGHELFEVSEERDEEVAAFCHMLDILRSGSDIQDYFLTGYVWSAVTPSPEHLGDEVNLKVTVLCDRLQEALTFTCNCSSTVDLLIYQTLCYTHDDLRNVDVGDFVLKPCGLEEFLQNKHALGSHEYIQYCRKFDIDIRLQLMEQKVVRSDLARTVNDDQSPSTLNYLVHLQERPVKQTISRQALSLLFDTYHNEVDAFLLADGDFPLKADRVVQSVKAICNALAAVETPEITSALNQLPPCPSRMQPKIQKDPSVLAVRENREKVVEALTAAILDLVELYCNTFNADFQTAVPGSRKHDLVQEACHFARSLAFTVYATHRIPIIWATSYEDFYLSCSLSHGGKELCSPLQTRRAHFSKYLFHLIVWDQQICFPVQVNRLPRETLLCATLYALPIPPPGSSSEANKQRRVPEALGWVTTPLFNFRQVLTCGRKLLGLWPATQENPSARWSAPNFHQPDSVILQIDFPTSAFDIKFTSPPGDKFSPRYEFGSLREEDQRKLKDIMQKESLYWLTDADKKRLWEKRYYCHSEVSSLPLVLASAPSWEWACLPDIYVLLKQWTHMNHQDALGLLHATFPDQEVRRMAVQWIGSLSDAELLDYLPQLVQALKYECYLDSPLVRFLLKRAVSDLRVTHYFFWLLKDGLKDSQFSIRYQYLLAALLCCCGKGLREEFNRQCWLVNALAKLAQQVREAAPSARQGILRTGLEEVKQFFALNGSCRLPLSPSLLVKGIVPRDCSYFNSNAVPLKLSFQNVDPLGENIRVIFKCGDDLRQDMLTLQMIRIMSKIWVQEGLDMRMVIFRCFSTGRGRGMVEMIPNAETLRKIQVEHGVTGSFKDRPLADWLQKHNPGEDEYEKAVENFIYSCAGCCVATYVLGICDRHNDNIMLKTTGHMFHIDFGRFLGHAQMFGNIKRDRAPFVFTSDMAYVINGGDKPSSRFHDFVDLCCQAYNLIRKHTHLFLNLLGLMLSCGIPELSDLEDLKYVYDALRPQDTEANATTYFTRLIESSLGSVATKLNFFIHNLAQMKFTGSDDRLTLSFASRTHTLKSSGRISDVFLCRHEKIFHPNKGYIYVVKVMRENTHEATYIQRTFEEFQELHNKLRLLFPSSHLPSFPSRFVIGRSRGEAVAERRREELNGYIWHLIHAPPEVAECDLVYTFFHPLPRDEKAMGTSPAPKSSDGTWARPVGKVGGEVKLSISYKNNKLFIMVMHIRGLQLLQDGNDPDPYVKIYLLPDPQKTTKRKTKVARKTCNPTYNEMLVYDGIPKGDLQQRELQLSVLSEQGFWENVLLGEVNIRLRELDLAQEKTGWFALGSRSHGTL
# ASSAY: KINOMEscan competition binding
# SETUP_CONDITIONS: compound 10.0 µM
Field format: number, assumed %, no unit text.

Example cases with answers are listed next.
INSERT INTO measurements (structure_smiles, recorded_value) VALUES
  ('CCOc1cc(N2CCC(O)CC2)ccc1Nc1ncc2c(n1)N(C)c1ccccc1C(=O)N2C', 100),
  ('N#Cc1cc(-c2ccnc(Nc3ccc(-n4cnc(-c5cccnc5)n4)cc3)n2)cc(N2CCOCC2)c1', 76);

Turning to the following compound.
Test system PIK3C2B (human) (UniProt O00750); read-out kinase still bound, per cent of control; what value for O=c1[nH]c2ccccc2n1C1CCN(Cc2ccc(-c3nc4cc5[nH]cnc5cc4nc3-c3ccccc3)cc2)CC1 ?
54

* * *

# System: PIK3CA (human), P42336 [E542K]
# Sequence (P42336 whole entry E542K, looked up): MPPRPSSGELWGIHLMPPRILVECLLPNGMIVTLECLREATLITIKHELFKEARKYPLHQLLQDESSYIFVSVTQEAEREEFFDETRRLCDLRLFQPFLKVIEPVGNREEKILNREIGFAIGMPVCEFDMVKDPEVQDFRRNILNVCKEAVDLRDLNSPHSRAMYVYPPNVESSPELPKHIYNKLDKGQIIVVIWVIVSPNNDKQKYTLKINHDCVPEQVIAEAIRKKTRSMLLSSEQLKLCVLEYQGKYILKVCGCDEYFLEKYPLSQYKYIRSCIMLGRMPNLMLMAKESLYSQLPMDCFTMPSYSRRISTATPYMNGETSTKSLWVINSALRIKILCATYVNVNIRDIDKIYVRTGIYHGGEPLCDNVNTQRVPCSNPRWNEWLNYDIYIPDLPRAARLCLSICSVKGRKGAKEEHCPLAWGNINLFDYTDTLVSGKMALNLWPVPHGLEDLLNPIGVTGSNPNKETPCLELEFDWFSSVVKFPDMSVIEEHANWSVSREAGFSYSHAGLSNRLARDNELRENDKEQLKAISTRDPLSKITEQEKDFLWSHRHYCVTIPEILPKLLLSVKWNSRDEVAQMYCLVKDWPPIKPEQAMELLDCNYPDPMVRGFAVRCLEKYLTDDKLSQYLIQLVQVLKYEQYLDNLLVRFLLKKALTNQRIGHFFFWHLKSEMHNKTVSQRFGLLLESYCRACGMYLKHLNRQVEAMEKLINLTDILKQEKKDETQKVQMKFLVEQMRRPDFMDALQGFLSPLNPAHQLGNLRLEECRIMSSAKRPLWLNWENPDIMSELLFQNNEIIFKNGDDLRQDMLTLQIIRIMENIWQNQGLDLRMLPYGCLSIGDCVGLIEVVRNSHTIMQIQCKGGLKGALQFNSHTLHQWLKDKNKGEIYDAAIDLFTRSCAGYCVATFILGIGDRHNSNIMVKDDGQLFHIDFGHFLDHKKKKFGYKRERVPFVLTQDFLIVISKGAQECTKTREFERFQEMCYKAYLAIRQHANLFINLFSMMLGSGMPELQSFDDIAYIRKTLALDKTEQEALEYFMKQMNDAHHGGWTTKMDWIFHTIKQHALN
# ASSAY: KINOMEscan competition binding
# SETUP_CONDITIONS: compound 10.0 µM
RECORDED_ENDPOINT: kinase still bound, per cent of control (%)
Field format: number, assumed %, no unit text.

Example cases with answers are listed next.
INSERT INTO assay_data (compound, recorded_value) VALUES
  ('COc1cc2ncnc(-n3nc(-c4ccccn4)nc3N)c2cc1OC', 48),
  ('O=C(NC1CC1)c1cccc(-c2ccc3c(NC(=O)C4CC4)n[nH]c3c2)c1', 100),
  ('CCCS(=O)(=O)Nc1ccc(F)c(C(=O)c2c[nH]c3ncc(Cl)cc23)c1F', 100);

I am curious: what kinase still bound, per cent of control value has been reported for CC1=C(C(=O)Nc2cc3cn[nH]c3cc2F)C(c2ccc(C(F)(F)F)cc2)CC(=O)N1 (stereo not given) ?
92

What about this compound? N#Cc1c(NC(=O)c2cccc3ccccc23)sc2c1CCCC2
100

What about this compound? CN(C)C/C=C/C(=O)Nc1cccc(Nc2ncc3c(n2)N(C)c2ccccc2C(=O)N3C)c1
39

What about this compound? CCc1nc(-c2cccc(C)c2)c(-c2ccnc(NC(=O)c3ccccc3)c2)s1
100

What about this compound? CCN1CCN(Cc2ccc(NC(=O)c3ccc(C)c(/C=C/c4cnc5[nH]ccc5c4OC)c3)cc2C(F)(F)F)CC1
100

What about this compound? Cc1cn(-c2cc(C(=O)Nc3ccc(C)c(NC(=O)c4ccno4)c3)cc(C(F)(F)F)c2)cn1
100

What about this compound? CN(C)C/C=C/C(=O)Nc1ccc(C(=O)Nc2cccc(Nc3nccc(-c4cccnc4)n3)c2)cc1
100

What about this compound? COc1ccc(N(C(=O)Oc2c(C)cccc2C)c2ccnc(Nc3ccc(N4CCN(C)CC4)cc3)n2)c(OC)c1
100

What about this compound? C=CC(=O)Nc1cc(-n2c(=O)ccc3cnc4ccc(-c5cn[nH]c5)cc4c32)ccc1C
20

* * *

# TESTED_ON: RPS6KA2 KD2 (human)
# ASSAY: KINOMEscan competition binding
# SETUP_CONDITIONS: compound 10.0 µM
Below, each of the compounds is paired with its reported kinase still bound, per cent of control value.
Quick note: number first, unit second.

Example cases with answers are listed next.
INSERT INTO results (compound, tested_on, recorded_value) VALUES
  ('Cc1cn(-c2cc(C(=O)Nc3ccc(C)c(NC(=O)c4ccno4)c3)cc(C(F)(F)F)c2)cn1', 'RPS6KA2 KD2 (human)', '100%'),
  ('COc1cc2ncnc(Nc3cccc(Cl)c3)c2cc1OC', 'RPS6KA2 KD2 (human)', '90%'),
  ('C=CC(=O)Nc1ccc(C(=O)c2sc(Nc3ccc(N4CCN(C)CC4)cc3OC)nc2N)cc1', 'RPS6KA2 KD2 (human)', '0.25%'),
  ('CCN(CCO)CCCOc1ccc2c(Nc3cc(CC(=O)Nc4cccc(F)c4)[nH]n3)ncnc2c1', 'RPS6KA2 KD2 (human)', '77%'),
  ('N#C/C(=C1/Nc2ccccc2S1)c1ccnc(NCCc2cccnc2)n1', 'RPS6KA2 KD2 (human)', '56%');

I am curious: what kinase still bound, per cent of control value has been reported for CCc1nc(-c2cccc(C)c2)c(-c2ccnc(NC(=O)c3ccccc3)c2)s1 ?
86%

What about this compound? CCOc1cc(N2CCC(O)CC2)ccc1Nc1ncc2c(n1)N(C)c1ccccc1C(=O)N2C
100%

What about this compound? O=c1[nH]c2ccccc2n1C1CCN(Cc2ccc(-c3nc4cc5[nH]cnc5cc4nc3-c3ccccc3)cc2)CC1
100%

What about this compound? COc1cc(C)c(Sc2cnc(NC(=O)c3ccc(CNC(C)C(C)C)cc3)s2)cc1C(=O)N1CCN(C(C)=O)CC1 (centres undefined)
100%
